Compiled record: Ki values for Ribonuclease pancreatic (Bos taurus, UniProt P61823) across several sources.
Readout Type: Ki (µM)

The cases that follow already have their Ki on record.
Compound: CCOC(=O)CN[C@H]1C[C@H](n2cc(C)c(=O)[nH]c2=O)O[C@@H]1CO
Readout Type: Ki
Unit String: µM
Recorded Number: 504
//
Compound: Cc1cn([C@H]2C[C@H](SCC(=O)O)[C@@H](CSCC(=O)O)O2)c(=O)[nH]c1=O
Readout Type: Ki
Unit String: µM
Recorded Number: 93

1 = COC(=O)CS[C@H]1C[C@H](n2cc(C)c(=O)[nH]c2=O)O[C@@H]1CO
2 = Cc1cn([C@H]2C[C@H](NC(=O)C(N)Cc3ccc(O)cc3)[C@@H](CO)O2)c(=O)[nH]c1=O (stereo partly drawn)
Compare Ki: is it lower for 1 or for 2 ? Selection: enter the item's label.
2
(2: 451 µM, 1: 757 µM)

I = Cc1cn([C@H]2C[C@H](O)[C@@H](COP(=O)(O)OP(=O)(O)O[C@H]3[C@@H](O)[C@H](n4cnc5c(N)ncnc54)O[C@@H]3CO)O2)c(=O)[nH]c1=O
II = O=c1ccn([C@@H]2O[C@H](CO)[C@@H](OP(=O)(O)O)[C@H]2O)c(=O)[nH]1
III = Cc1cn([C@H]2C[C@H](OCC(=O)O)[C@@H](CO)O2)c(=O)[nH]c1=O
// smallest Ki at index 0, largest at the end Labels, requested order.
I, II, III
(I: 0.041 µM, II: 82 µM, III: 267 µM)

a = COC(=O)CS(=O)(=O)[C@H]1C[C@H](n2cc(C)c(=O)[nH]c2=O)O[C@@H]1CO
b = Cc1cn([C@H]2C[C@@H](S(=O)(=O)CC(=O)O)[C@@H](CS(=O)(=O)CC(=O)O)O2)c(=O)[nH]c1=O
c = Nc1ccn([C@@H]2O[C@H](CO)[C@@H](O)[C@H]2OP(=O)(O)O)c(=O)n1
d = COC(=O)CS(=O)(=O)C[C@H]1O[C@@H](n2cc(C)c(=O)[nH]c2=O)C[C@H]1S(=O)(=O)CC(=O)OC
Order the 4 compounds from highest to lowest Ki. Labels, requested order.
d, a, b, c

====

Compiled record: Ki values for Ribonuclease pancreatic (Bos taurus, UniProt P61823) across several sources.
# Assay System: Ribonuclease pancreatic (Bos taurus, UniProt P61823)
# Sequence (P61823 whole entry): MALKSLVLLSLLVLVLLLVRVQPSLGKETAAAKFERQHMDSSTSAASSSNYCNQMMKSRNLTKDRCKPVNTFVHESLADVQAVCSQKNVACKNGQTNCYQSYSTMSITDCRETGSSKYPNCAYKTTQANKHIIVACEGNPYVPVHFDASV
Readout Type: Ki (µM)

The cases that follow already have their Ki on record.
Compound: O=c1ccn([C@@H]2O[C@H](CO)[C@@H](OP(=O)(O)O)[C@@H]2O)c(=O)[nH]1
Assay System: Ribonuclease pancreatic (Bos taurus, UniProt P61823)
Ki / µM: 6

Compound: Nc1ccn([C@@H]2O[C@H](CO)[C@@H](OP(=O)(O)O)[C@H]2O)c(=O)n1
Assay System: Ribonuclease pancreatic (Bos taurus, UniProt P61823)
Ki / µM: 20.1

Compound: Cc1cn([C@H]2C[C@H](S(=O)(=O)CC(=O)O)[C@@H](CS(=O)(=O)CC(=O)O)O2)c(=O)[nH]c1=O
Assay System: Ribonuclease pancreatic (Bos taurus, UniProt P61823)
Ki / µM: 25

Compound: Cc1cn([C@H]2C[C@H](NCC(=O)O)[C@@H](CO)O2)c(=O)[nH]c1=O
Assay System: Ribonuclease pancreatic (Bos taurus, UniProt P61823)
Ki / µM: 186

a = Cc1cn([C@H]2C[C@H](O)[C@@H](C(=O)O)O2)c(=O)[nH]c1=O
b = Cc1cn([C@H]2C[C@H](NC(=O)C(N)CC(=O)O)[C@@H](CO)O2)c(=O)[nH]c1=O (some centres not stated)
c = O=c1ccn(Cc2cn([C@@H]3O[C@H](CO)[C@@H](O)[C@H]3O)nn2)c(=O)[nH]1
Order the 3 compounds from highest to lowest Ki. Labels, requested order.
a, b, c
(a: 193 µM, b: 37 µM, c: 0.24 µM)
